test-system: PAK6 (human) (UniProt Q9NQU5)
Sequence (Q9NQU5 whole entry, looked up): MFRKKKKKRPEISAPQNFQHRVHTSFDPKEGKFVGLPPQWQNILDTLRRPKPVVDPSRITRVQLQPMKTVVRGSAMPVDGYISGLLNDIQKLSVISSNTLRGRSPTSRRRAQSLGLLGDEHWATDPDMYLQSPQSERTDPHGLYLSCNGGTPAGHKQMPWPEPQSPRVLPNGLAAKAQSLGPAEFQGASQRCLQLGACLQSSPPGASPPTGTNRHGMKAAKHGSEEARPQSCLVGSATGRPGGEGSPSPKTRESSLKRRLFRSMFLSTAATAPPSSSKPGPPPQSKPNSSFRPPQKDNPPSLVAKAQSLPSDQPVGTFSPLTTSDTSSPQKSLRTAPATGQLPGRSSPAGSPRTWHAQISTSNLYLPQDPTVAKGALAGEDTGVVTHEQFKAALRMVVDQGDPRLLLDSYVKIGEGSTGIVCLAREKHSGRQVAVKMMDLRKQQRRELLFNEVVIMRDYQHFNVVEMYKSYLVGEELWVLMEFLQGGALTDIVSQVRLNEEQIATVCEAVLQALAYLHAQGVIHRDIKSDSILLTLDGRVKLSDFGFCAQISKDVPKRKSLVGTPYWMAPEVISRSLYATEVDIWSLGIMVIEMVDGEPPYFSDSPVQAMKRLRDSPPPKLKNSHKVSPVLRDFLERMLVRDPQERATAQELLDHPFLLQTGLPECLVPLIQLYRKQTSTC
experiment-summary: radiometric filter-binding kinase assay
study-conditions: compound 1.0 µM
What residual activity was measured for each of the following?
Give bare numbers, in %.

Observe how each entry below is paired with its result.
O=C(N[C@@H](COc1ccc2[nH]c(=O)[nH]c2c1)c1ccccc1)c1cccn(Cc2ccc(F)c(F)c2)c1=O    102
Cc1cc(SCc2sc(-c3ccc(C(F)(F)F)cc3)nc2C)ccc1OCC(=O)O    97
NCC(=O)Nc1ccc(-n2nc(C(F)(F)F)cc2-c2ccc3c(ccc4ccccc43)c2)cc1    88
Cn1c(=O)c2c(ncn2C)n(C)c1=O    101
Cc1ccc(-c2ccc3c(ccc4sc5c(c43)NC[C@@H](C)NC5=O)n2)cn1    106
Nc1cccc2c1CN(C1CCC(=O)NC1=O)C2=O (stereo not given)    102
Cc1cccc(-c2nn(C(=S)Nc3ccccc3)cc2-c2ccnc3ccccc23)n1    113
NC1(c2ccc(-c3nc4ccn5c(=O)[nH]nc5c4cc3-c3ccccc3)cc2)CCC1    100

Respectfully, I request residual activity for each entry included below.
1. Cc1cccc(Nc2nn(C)c3ncnc(N)c23)c1
2. COc1ccc(-n2ncc3cnc(Nc4cc(OC)c(OC)c(OCCCN5CCN(C)CC5)c4)nc32)cc1
3. NC(=O)c1c(NC(=O)C2CC2)sc2c1CCCC2
4. Cc1ccc(=O)n(-c2ccccc2)c1
5. O=C(Nc1nc2cc(C(F)(F)F)cc(NC3CC3)n2n1)c1cccnc1

// result
1. 103
2. 24
3. 83
4. 106
5. 93

Respectfully, I request residual activity for each entry included below.
1. NC(=O)c1cc(-c2ccnc(NC3CCCCC3)c2)nc(N2CCNCC2)c1
2. NC(=O)Nc1ccc2c(c1)/C(=C/c1cc(-c3cccnc3)c[nH]1)C(=O)N2

// result
1: 99; 2: 77

Respectfully, I request residual activity for each entry included below.
1. COc1ccc2c(c1)c1c3c(c4c5ccccc5n(C)c4c1n2CC(O)CN(C)C)C(=O)NC3=O (stereo not given)
2. CC1=C(CO)C(=O)O[C@@H]([C@@H](C)[C@H]2CC[C@H]3[C@@H]4C[C@H]5O[C@]56[C@@H](O)C=CC(=O)[C@]6(C)C4CC[C@]23C)C1 (stereo not given in full)

// result
1. 82
2. 126
